# Test system: CD2F1 mice, L1210 leukemia ip, survival T/C
# ASSAY_OVERVIEW: NCI In Vivo Anticancer Drug Screen. Data for tumor model L1210 Leukemia (intraperitoneal) in CD2F1 (CDF1) mice
# TEST_SETTINGS: endpoint: mean survival time; dose: 12.5 mg/kg/injection; schedule: Q01DX009 (ip); vehicle: saline with Tween-80; higher = longer survival
Toxic doses and inconclusive results are not listed.
READOUT: T/C

Name the recorded T/C for c1ccc(-c2ccc(C3=NC(c4ccccc4)N4C3C4c3ccccc3)cc2)cc1 (configuration not stated) . 94 % of control

Name the recorded T/C for "CCCCC(=O)NN" . 90 % of control

Name the recorded T/C for "C1=CCOCOC1" . 106 % of control

Name the recorded T/C for "O=S1(=O)Cc2c(Br)c(Br)c(Br)c(Br)c2C1" . 90 % of control

Name the recorded T/C for "COc1ccc(C(=O)c2no[n+]([O-])c2C(=O)c2ccc(OC)cc2)cc1" . 100 % of control

Name the recorded T/C for "COC1=C(OC)C(=O)C(SCc2ccc(OC)cc2)=CC1=O" . 91 % of control

Name the recorded T/C for "COC(COS(=O)(=O)c1ccc(Br)cc1)(c1ccccc1)c1ccccc1" . 95 % of control

Name the recorded T/C for "COc1cc(OC)c(NC(=O)ON2C(=O)c3ccccc3C2=O)cc1Cl" . 103 % of control

Name the recorded T/C for "CC(C)N1C(=O)C=C(c2ccc([N+](=O)[O-])cc2)C1=O" . 95 % of control

Name the recorded T/C for "O=C1C=CC(=O)N1c1ccc(Cl)cc1[N+](=O)[O-]" . 97 % of control

Name the recorded T/C for "Cc1ccc(NC(=O)NC(C)C)c(C)c1" . 100 % of control

Name the recorded T/C for "NC(=O)c1c(N)sc2c1CCCC2" . 93 % of control

---

# Test system: CD2F1 mice, L1210 leukemia ip, survival T/C
# ASSAY_OVERVIEW: NCI In Vivo Anticancer Drug Screen. Data for tumor model L1210 Leukemia (intraperitoneal) in CD2F1 (CDF1) mice
# TEST_SETTINGS: endpoint: mean survival time; dose: 100.0 mg/kg/injection; schedule: Q01DX009 (ip); vehicle: saline with Tween-80; higher = longer survival
Inconclusive results and toxic doses are left out.
READOUT: T/C

Example entries and their recorded answers appear below.
COMPOUND	SUBJECT_OF_TEST	T/C
CCCCCCCCCCCCCCC/C([O-])=N/[N+](C)(C)CC(C)O (configuration not stated)	CD2F1 mice, L1210 leukemia ip, survival T/C	91 % of control
O=S(=O)(O)c1ccc(Nc2ccccc2)cc1	CD2F1 mice, L1210 leukemia ip, survival T/C	105 % of control
CC(=O)Nc1ccc(NC(=O)Nc2ccc(C)c([N+](=O)[O-])c2)cc1	CD2F1 mice, L1210 leukemia ip, survival T/C	98 % of control
Cc1ccc(/C=N/NC(=O)CNC(=O)Nc2cccc(C(F)(F)F)c2)cc1	CD2F1 mice, L1210 leukemia ip, survival T/C	88 % of control
O=C(O)c1cccc(COc2ccc([N+](=O)[O-])cc2Cl)c1	CD2F1 mice, L1210 leukemia ip, survival T/C	101 % of control
Cc1cc(NC(=O)NCc2ccc(N3C(N)=NC(N)=NC3(C)C)cc2)ccc1S(=O)(=O)F	CD2F1 mice, L1210 leukemia ip, survival T/C	123 % of control
CC/C=C(/CC)C1CCCCC1C (configuration not stated)	CD2F1 mice, L1210 leukemia ip, survival T/C	96 % of control
COC(=O)CCC(=O)N1C=Cc2ccccc2C1C#N (configuration not stated)	CD2F1 mice, L1210 leukemia ip, survival T/C	98 % of control

Name the recorded T/C for "O=C(c1ccc(-c2ccccc2)cc1)C1CCCCC1" . 94 % of control

Name the recorded T/C for COC1OC2COC(c3ccccc3)OC2C2OC12 (configuration not stated) . 94 % of control

Name the recorded T/C for "CCCCCC#CC(=O)OC" . 104 % of control

Name the recorded T/C for "CC(C)(CCCO)c1cccc(Cl)c1" . 101 % of control

---

# Tested on: CD2F1 mice, L1210 leukemia ip, survival T/C
# ASSAY_OVERVIEW: NCI In Vivo Anticancer Drug Screen. Data for tumor model L1210 Leukemia (intraperitoneal) in CD2F1 (CDF1) mice
# TEST_SETTINGS: endpoint: mean survival time; dose: 25.0 mg/kg/injection; schedule: Q01DX005 (ip); vehicle: distilled water + Tween-80; higher = longer survival
Toxic doses and inconclusive results are not listed.
READOUT: T/C

Example entries and their recorded answers appear below.
COMPOUND	RESULT
CCCCCCC(Sc1n[nH]c(=O)[nH]c1=O)C(=O)OCC (centres undefined)	102 % of control
C/C(Cl)=C\CNc1ncnc2c1ncn2C1OC(CO)C(O)C1O (centres undefined)	91 % of control
CN1CCN(Cc2cn(C3CC(O)C(CO)O3)c(=O)[nH]c2=O)c2ccccc21 (centres undefined)	93 % of control

For the next question, use this compound.
Name the recorded T/C for Nc1nc2c(nc(N3CCCC3)n2C2OC(CO)C(O)C2O)c(=O)[nH]1 (centres undefined) . 102 % of control

---

# System: CD2F1 mice, L1210 leukemia ip, survival T/C
# ASSAY_OVERVIEW: NCI In Vivo Anticancer Drug Screen. Data for tumor model L1210 Leukemia (intraperitoneal) in CD2F1 (CDF1) mice
# TEST_SETTINGS: endpoint: mean survival time; dose: 50.0 mg/kg/injection; schedule: Q01DX009 (ip); vehicle: water; higher = longer survival
Inconclusive results and toxic doses are left out.
READOUT: T/C

Example entries and their recorded answers appear below.
COMPOUND	T/C
CC1C(c2ccccc2)OP(=O)(N(CCCl)CCCl)N1C (stereo unspecified)	100 % of control
CC(C)CCCC(C)C1CCC2C3CC=C4CC(O)CCC4(C)C3CCC12C (stereo unspecified) (tested in a mixture with another compound)	102 % of control
[O-]c1cc2c3c(c1)c1cc4c(cc1c[n+]3C=C2)OCO4	115 % of control
COc1ccc(OC)c(C=C(C(C)=O)C(C)=O)c1	100 % of control

Name the recorded T/C for COC(=O)C(CS)NC(=O)CCNC(C)=O (stereo unspecified) . 97 % of control

Name the recorded T/C for "COc1ccc(OC)c(CC(C(C)=O)C(C)=O)c1" . 100 % of control

---

Entries and their measured T/C follow.
# System: CD2F1 mice, L1210 leukemia ip, survival T/C
# ASSAY_OVERVIEW: NCI In Vivo Anticancer Drug Screen. Data for tumor model L1210 Leukemia (intraperitoneal) in CD2F1 (CDF1) mice
# TEST_SETTINGS: endpoint: mean survival time; dose: 150.0 mg/kg/injection; schedule: Q01DX001 (ip); vehicle: saline; higher = longer survival
Toxic doses and inconclusive results are not listed.

MOLECULE	T/C
O=C1CCCCC1CNCc1ccccc1 (centres undefined)	93 % of control
CC(=O)c1c(C(=O)O)c(=O)oc2cc(O)ccc12	98 % of control
C1=CCC2C3C=CC(CC3)C2C1 (centres undefined)	95 % of control
FC(F)(F)C1(F)N(Cc2ccccc2)N=NC1(F)F (centres undefined)	98 % of control

Name the recorded T/C for CNC1C(CO)OC(n2cnc3c(N)ncnc32)C1O (centres undefined) . 103 % of control

Name the recorded T/C for CCC(C)C(C(=O)O)C(=O)O (centres undefined) . 100 % of control

---

# Test system: CD2F1 mice, L1210 leukemia ip, survival T/C
# ASSAY_OVERVIEW: NCI In Vivo Anticancer Drug Screen. Data for tumor model L1210 Leukemia (intraperitoneal) in CD2F1 (CDF1) mice
# TEST_SETTINGS: endpoint: mean survival time; dose: 12.5 mg/kg/injection; schedule: Q04DX003 (ip); vehicle: saline with Tween-80; higher = longer survival
Inconclusive results and toxic doses are left out.
READOUT: T/C

Example entries and their recorded answers appear below.
COMPOUND	T/C
COc1cc(CNC(=O)CCCC2CCC2)ccc1O	101 % of control
Cc1ccc(N)cc1 (tested in a mixture with another compound)	97 % of control
O=c1cc(C(F)(F)F)[nH]c2ccc(Br)cc12	97 % of control

# value lookup — system CD2F1 mice, L1210 leukemia ip, survival T/C, readout T/C, item "O=C(COc1ccc(Cl)c(Cl)c1)Nc1ccc[n+](Cc2ccccc2)c1" 104 % of control

# value lookup — system CD2F1 mice, L1210 leukemia ip, survival T/C, readout T/C, item "O=[N+]([O-])c1cc([N+](=O)[O-])c(Cl)s1" 92 % of control

# value lookup — system CD2F1 mice, L1210 leukemia ip, survival T/C, readout T/C, item "c1ccc(CCN2COc3c(ccc4cccnc34)C2)cc1" 102 % of control

Values compiled from PubChem BioAssay AID256.
